Target: serotonin transporter (Mus musculus)
Test: In vitro inhibition of accumulation of [14C]5-HT (5-HT) in mouse brain slices
result_type: IC50 (µM)

[[record]]
smiles_code = "Cc1ccc(/C(=C/CN(C)C)c2cccnc2)cc1"
result_unit = "µM"
quantitative_readout = 2.4

[[record]]
smiles_code = "CN(C)C/C=C(/c1ccccc1)c1cccnc1"
result_unit = "µM"
quantitative_readout = 3.7

[[record]]
smiles_code = "CN(C)C/C=C(/c1ccc(C(F)(F)F)cc1)c1cccnc1"
result_unit = "µM"
quantitative_readout = 2

[[record]]
smiles_code = "COc1ccc(/C(=C/CN(C)C)c2cccnc2)cc1"
result_unit = "µM"
quantitative_readout = 0.8

[[record]]
smiles_code = "CNC/C=C(\\c1cccnc1)c1cccc(Br)c1"
result_unit = "µM"
quantitative_readout = 1.4

[[record]]
smiles_code = "CCNC/C=C(/c1ccc(Br)cc1)c1cccnc1"
result_unit = "µM"
quantitative_readout = 2

[[record]]
smiles_code = "CNC/C=C(\\c1cccnc1)c1ccc(Cl)cc1Cl"
result_unit = "µM"
quantitative_readout = 0.5

[[record]]
smiles_code = "CCCNC/C=C(/c1ccc(Br)cc1)c1cccnc1"
result_unit = "µM"
quantitative_readout = 24

[[record]]
smiles_code = "CN(C)C/C=C(\\c1cccnc1)c1cccc(F)c1"
result_unit = "µM"
quantitative_readout = 1.6

[[record]]
smiles_code = "CN(C)C/C=C(/c1ccc(I)cc1)c1cccnc1"
result_unit = "µM"
quantitative_readout = 1

[[record]]
smiles_code = "CN(C)C/C=C(/c1ccc(Cl)cc1)c1cccnc1"
result_unit = "µM"
quantitative_readout = 2.1

[[record]]
smiles_code = "CN(C)C/C=C(\\c1cccnc1)c1ccccc1Br"
result_unit = "µM"
quantitative_readout = 4.2

[[record]]
smiles_code = "CN(C)C/C=C(\\c1cccnc1)c1cccc(Cl)c1"
result_unit = "µM"
quantitative_readout = 2.6

[[record]]
smiles_code = "CNC/C=C(\\c1cccnc1)c1ccccc1Br"
result_unit = "µM"
quantitative_readout = 0.6

[[record]]
smiles_code = "CC(C)Oc1ccc(/C(=C/CN(C)C)c2ccncc2)cc1"
result_unit = "µM"
quantitative_readout = 3.5


---

IC50 for assorted molecules
Target: norepinephrine transporter (Mus musculus)
Assay: In vitro inhibition of accumulation of (-)-[3H]Norepinephrine (NA) in mouse brain slices
result_type: IC50 (µM)

[[record]]
smiles_code = "CNC/C=C(\\c1cccnc1)c1ccccc1Br"
relational_operator = "="
quantitative_readout = 0.3

[[record]]
smiles_code = "Cc1ccc(/C(=C/CN(C)C)c2cccnc2)cc1"
relational_operator = ">"
quantitative_readout = 29

[[record]]
smiles_code = "CN(C)C/C=C(\\c1cccnc1)c1ccccc1Br"
relational_operator = "="
quantitative_readout = 2.2

[[record]]
smiles_code = "CC(C)Oc1ccc(/C(=C/CN(C)C)c2ccncc2)cc1"
relational_operator = "="
quantitative_readout = 34

[[record]]
smiles_code = "CN(C)C/C=C(/c1ccc(I)cc1)c1cccnc1"
relational_operator = ">"
quantitative_readout = 22

[[record]]
smiles_code = "CN(C)C/C=C(/c1ccc(C(F)(F)F)cc1)c1cccnc1"
relational_operator = "="
quantitative_readout = 13

[[record]]
smiles_code = "CCNC/C=C(/c1ccc(Br)cc1)c1cccnc1"
relational_operator = "="
quantitative_readout = 26

[[record]]
smiles_code = "CCCNC/C=C(/c1ccc(Br)cc1)c1cccnc1"
relational_operator = ">"
quantitative_readout = 24

[[record]]
smiles_code = "CN(C)C/C=C(/c1ccc(Cl)cc1)c1cccnc1"
relational_operator = "="
quantitative_readout = 10

[[record]]
smiles_code = "CNC/C=C(\\c1cccnc1)c1ccc(Cl)cc1Cl"
relational_operator = "="
quantitative_readout = 2.3

[[record]]
smiles_code = "CN(C)C/C=C(/c1ccccc1)c1cccnc1"
relational_operator = "="
quantitative_readout = 27

[[record]]
smiles_code = "CN(C)C/C=C(\\c1cccnc1)c1cccc(Cl)c1"
relational_operator = "="
quantitative_readout = 11

[[record]]
smiles_code = "CN(C)C/C=C(\\c1cccnc1)c1cccc(F)c1"
relational_operator = "="
quantitative_readout = 2.2

[[record]]
smiles_code = "CNC/C=C(\\c1cccnc1)c1cccc(Br)c1"
relational_operator = "="
quantitative_readout = 0.9

[[record]]
smiles_code = "COc1ccc(/C(=C/CN(C)C)c2cccnc2)cc1"
relational_operator = ">"
quantitative_readout = 28

